Tested on: Klebsiella pneumoniae CF104
PROTOCOL DESCRIPTION: MIC by broth microdilution (NCCLS M7-A5)
CONDITION PARAMETERS: + 102 + sulbactam, 4 mg/L each

>  <COMPOUND>
C[C@H]1[C@H](NC(=O)/C(=N\OCc2cc(=O)c(O)cn2O)c2nccc(N)n2)C(=O)N1S(=O)(=O)O [Compound 21]

>  <MIC of antibiotic (µg/mL)>
2

$$$$
>  <COMPOUND>
C[C@H]1[C@H](NC(=O)/C(=N\OCc2cc(=O)c(O)cn2O)c2nc(N)sc2Cl)C(=O)N1OS(=O)(=O)O [Compound 29]

>  <MIC of antibiotic (µg/mL)>
2

$$$$
>  <COMPOUND>
C[C@H]1[C@H](NC(=O)/C(=N\OC(C)(C)C(=O)O)c2csc(N)n2)C(=O)N1S(=O)(=O)O [Aztreonam, aztreonam, reference compound]

>  <MIC of antibiotic (µg/mL)>
1

$$$$
>  <COMPOUND>
CC1C(NC(=O)C(=NOCc2cc(=O)c(O)cn2O)c2csc(N)n2)C(=O)N1S(=O)(=O)O (stereo not shown) [Compound 1]

>  <MIC of antibiotic (µg/mL)>
1

$$$$
